Assay Procedure: Metabolic stability in human liver microsomes assessed as extraction ratio
Type: ADME
Measurement Parameters: read-out: ERH
In this section we review reported hepatic extraction ratio values for a set of compounds.

Consider the reported hepatic extraction ratio for these compounds:
{"Compound": "COc1ccc(-c2cc3c(C)nc(N)nc3n([C@H]3CC[C@H](O)CC3)c2=O)cn1", "hepatic extraction ratio": "< 0.25"}
{"Compound": "COc1ccc(-c2cc3c(C)nc(N)nc3n(C3CCCC3)c2=O)cn1", "hepatic extraction ratio": "< 0.25"}
{"Compound": "COc1ccc(-c2cc3c(C)nc(N)nc3n(C3CCOCC3)c2=O)cn1", "hepatic extraction ratio": "< 0.26"}
{"Compound": "CNc1nc(C)c2cc(-c3cccc(CO)c3)c(=O)n(C3CCCC3)c2n1", "hepatic extraction ratio": 0.68}
{"Compound": "COc1ccc(-c2cc3c(C)nc(N)nc3n([C@H]3CC[C@@H](O)CC3)c2=O)cn1", "hepatic extraction ratio": "< 0.26"}

Proceed to the following item.
query: Sample COc1ccc(-c2cc3c(C)nc(N)nc3n(C3CCOC3)c2=O)cn1 (stereo unspecified) — what was its hepatic extraction ratio?
result: < 0.26

----------
Assay Procedure: Half life in rat at 2 mg/kg, iv and 5 mg/kg, po by LC-MS/MS analysis
Format: ADME, organism-based
Measurement Parameters: in vivo
Readout: half-life (h)
Just the number please, in h, no unit attached.

query: Entry COc1ccc(-c2cc3c(C)nc(N)nc3n([C@H]3CC[C@H](OCCO)CC3)c2=O)cn1 [PF-04691502] : reported half-life = ?
result: 3.1

----------
Assay Procedure: Drug absorption in rat
Format: ADME, organism-based
Measurement Parameters: in vivo, read-out: Drug absorption
Readout: Fa
Number plus unit, in that order.

query: What does the data say about its Fa? Entry: `COc1ccc(-c2cc3c(C)nc(N)nc3n(C3CCCC3)c2=O)cn1`
result: 28%

----------
Assay Procedure: Kinetic solubility of the compound
Assay type: physicochemical
Measurement Parameters: read-out: Kinetic_solubility
Binary classification by solubility kinetic, with 20 µM as an inclusive lower bound for 1; all other cases are 0.

{"Compound": "COc1ccc(-c2cc3c(C)nc(N)nc3n(C3CCOCC3)c2=O)cn1", "Label": 1}

Attention now shifts to the item below.
query: Check the entry `CNc1nc(C)c2cc(-c3cccc(CO)c3)c(=O)n(C3CCCC3)c2n1` : does solubility kinetic equal or exceed 20 µM?
result: 1

----------
Assay Procedure: Unbound fraction in rat plasma at 2 mg/kg, iv and 5 mg/kg, po by LC-MS/MS analysis
Assay type: ADME, organism-based
Readout: fraction unbound
Just the number, please, no unit after it.

query: Reported fraction unbound for `COc1ccc(-c2cc3c(C)nc(N)nc3n([C@H]3CC[C@H](OCCO)CC3)c2=O)cn1` : what is it?
result: 0.202

----------
Reported Ki by item:
Target System: Serine/threonine-protein kinase mTOR (Homo sapiens, UniProt P42345)
The reply should be a number in nM, with the unit left off.

{"Chemical String": "COc1ccc(-c2cc3c(C)nc(N)nc3n(C3CCOCC3)c2=O)cn1", "Ki / nM": 110}
{"Chemical String": "COc1ccc(-c2cc3c(C)nc(N)nc3n([C@H]3CC[C@H](O)CC3)c2=O)cn1", "Ki / nM": 17}
{"Chemical String": "COc1ccc(-c2cc3c(C)nc(N)nc3n(C3CCCC3)c2=O)cn1", "Ki / nM": 200}

Continue with the compound presented below.
query: Give Serine/threonine-protein kinase mTOR (Homo sapiens, UniProt P42345) Ki for `COc1ccc(-c2cc3c(C)nc(N)nc3n([C@H]3CC[C@@H](O)CC3)c2=O)cn1`
result: 90
